- TESTED_SYSTEM: Amine oxidase [flavin-containing] B (Homo sapiens, UniProt P27338)
- Sequence (P27338 whole entry): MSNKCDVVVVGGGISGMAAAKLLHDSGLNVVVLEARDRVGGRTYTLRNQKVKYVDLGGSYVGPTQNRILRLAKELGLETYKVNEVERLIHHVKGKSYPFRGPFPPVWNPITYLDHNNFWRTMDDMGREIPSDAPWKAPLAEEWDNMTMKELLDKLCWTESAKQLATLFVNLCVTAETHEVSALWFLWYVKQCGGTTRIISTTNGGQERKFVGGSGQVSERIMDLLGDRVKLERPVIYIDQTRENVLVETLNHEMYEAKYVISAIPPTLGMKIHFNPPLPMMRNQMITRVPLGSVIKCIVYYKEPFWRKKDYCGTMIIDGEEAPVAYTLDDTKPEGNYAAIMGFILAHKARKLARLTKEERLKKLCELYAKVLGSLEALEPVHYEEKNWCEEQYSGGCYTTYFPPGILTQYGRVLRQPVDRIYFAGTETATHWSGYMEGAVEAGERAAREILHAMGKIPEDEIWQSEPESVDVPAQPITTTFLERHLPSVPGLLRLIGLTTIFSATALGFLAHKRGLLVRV
- TEST_NAME: biochemical
- Description: Inhibition of recombinant human MAO-B expressed in baculovirus infected insect cells assessed as reduction in H2O2 production using p-tyramine as substrate pretreated for 15 mins followed by substrate addition and measured over 15 mins by Amplex red reagent based fluorimetric assay
PROPERTY_NAME: IC50 (µM)

In [3]: df
Out[3]:
                   sample_smiles  result
0      Cc1ccc2oc(-c3ccccc3)cc2c1    0.88
1  Cc1cccc2cc(-c3ccc(Br)cc3)oc12    0.95
2  Cc1ccc2oc(-c3ccc(Br)cc3)cc2c1     100

[A] Cc1ccc2oc(-c3cccc(Br)c3)cc2c1
[B] Brc1cccc(-c2cc3ccccc3o2)c1
[C] Cc1cccc2cc(-c3ccccc3Br)oc12
Enquiry: Arrange the 3 entries by IC50 so the values rise. Give the labels in the order requested.
Return: A, B, C
(A: 0.25 µM, B: 1.17 µM, C: 9.68 µM)

###

- TESTED_SYSTEM: Amine oxidase [flavin-containing] B (Homo sapiens)
- TEST_NAME: biochemical
pIC50: −log10 of the molar value.
PROPERTY_NAME: pIC50

                   sample_smiles  result
0  Cc1cccc2cc(-c3cccc(Br)c3)oc12    5.40

[P] Cc1cccc2cc(-c3ccccc3)oc12
[Q] Brc1ccccc1-c1cc2ccccc2o1
Enquiry: // task: argmin of pIC50 over [ P , Q ] Identify your pick by its label.
Return: P
(P: 4.97, Q: 5.95)
